Ref: patent US10961234B2

# System: LM2 and MDA-MB-231 breast cancer cell lines
# test method notes: PAICS 2D cell proliferation assay
# Type: cell-based
# recorded conditions: Homo sapiens; 72 hours incubation; cell line (LM2 or MDA-MB-231) not given
measured property: EC50

Req: Endpoint output: EC50 of CN(C)CCOc1ccc(-c2ccc(Cl)c(NC(=O)c3coc(N)n3)c2)cn1 . Value?
Resp: 250 to 500 nM

Req: Field request: EC50 | item: CN1CCC(NCc2ccc(-c3ccc(Cl)c(NC(=O)c4coc(N)n4)c3)cn2)CC1
Resp: 100 to 250 nM

Req: I'd like to know its EC50. The compound in question is Nc1nc(C(=O)Nc2cc(-c3cnc(OC4CCNCC4)s3)ccc2Cl)co1
Resp: < 100 nM

Req: Look up EC50: CNC1CCC(n2cc(-c3ccc(Cl)c(NC(=O)c4coc(N)n4)c3)cn2)CC1 (mixture of isomers)
Resp: < 100 nM

Req: Need EC50, item CC(C)NCCCOc1ccc(-c2ccc(Cl)c(NC(=O)c3coc(N)n3)c2)cn1
Resp: 100 to 250 nM

* * *

Listed here are molecules together with their documented pIC50.
Target sequence: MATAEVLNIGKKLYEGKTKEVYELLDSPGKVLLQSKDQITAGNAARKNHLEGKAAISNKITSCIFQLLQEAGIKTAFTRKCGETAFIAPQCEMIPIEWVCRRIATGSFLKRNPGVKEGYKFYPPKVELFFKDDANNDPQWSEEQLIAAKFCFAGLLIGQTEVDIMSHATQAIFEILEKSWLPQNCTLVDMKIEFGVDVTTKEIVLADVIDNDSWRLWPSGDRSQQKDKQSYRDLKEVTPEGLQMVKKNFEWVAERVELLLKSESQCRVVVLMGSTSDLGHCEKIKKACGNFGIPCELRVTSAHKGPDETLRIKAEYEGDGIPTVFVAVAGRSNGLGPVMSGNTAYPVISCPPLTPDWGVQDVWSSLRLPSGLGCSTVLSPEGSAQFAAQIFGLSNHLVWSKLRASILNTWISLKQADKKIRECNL
pIC50: −log10 of the molar value.

Known results for molecules:
- molecule: "Nc1nc(C(=O)Nc2cc(-c3ccc(OC4CCNC4)nc3)ccc2Cl)co1 (stereo not shown)"
  pIC50: "7.60 to 8.00"
- molecule: "Nc1nc(C(=O)Nc2cc(-c3cnn(C4CCCNC4)c3)ccc2Cl)co1 (stereo not shown)"
  pIC50: "< 7.00"
- molecule: "CCNCCn1cc(-c2ccc(Cl)c(NC(=O)c3coc(N)n3)c2)cn1"
  pIC50: "7.60 to 8.00"

Req: Name the recorded pIC50 for Nc1nc(C(=O)Nc2cc(-c3nc(CN4CCNCC4)cs3)ccc2Cl)co1 .
Resp: > 8.00

Req: Look at this molecule and give its reported pIC50. Nc1nc(C(=O)Nc2cc(-c3cnn(C4CCN(CCO)CC4)c3)ccc2Cl)co1
Resp: < 7.00

Req: So what's the measured pIC50 for this one? Nc1nc(C(=O)Nc2cc(-c3cnc(OC4CCNCC4)nc3)ccc2Cl)co1
Resp: 7.60 to 8.00

Req: Give the measured pIC50 of CN1CC(n2cc(-c3ccc(Cl)c(NC(=O)c4coc(N)n4)c3)cn2)C1 .
Resp: < 7.00

* * *

Listed here are molecules together with their documented IC50.
# target under test: WT full length PAICS (Homo sapiens)
# Construct: 5 μl WT full length PAICS (final assay concentration, fac, 2.5 nM) in basic buffer
# test method notes: Biochemical assay to measure PAICS activity (Transcreener ADP2 FI, SAICAR synthetase reaction)
# recorded conditions: PAICS 2.5 nM, 30 mins pre-incubation, ADP detection by fluorescence intensity

Past entries and their recorded results:
- molecule: "Nc1nc(C(=O)Nc2cc(-c3ccc(CN4CC5CNCC5C4)nc3)ccc2Cl)co1 (centres unmarked) [Example 79]"
  IC50: "10 to 25 nM"
- molecule: "CNC1CCN(Cc2ncc(-c3ccc(Cl)c(NC(=O)c4coc(N)n4)c3)s2)CC1 [Example 91]"
  IC50: "< 10 nM"
- molecule: "Nc1nc(C(=O)Nc2cc(-c3cnc(OC4CCNCC4)s3)ccc2Cl)co1 [Example 87]"
  IC50: "< 10 nM"
- molecule: "CC(C)NCCCOc1ccc(-c2ccc(Cl)c(NC(=O)c3coc(N)n3)c2)cn1 [Example 71]"
  IC50: "10 to 25 nM"
- molecule: "CN(C)CCNC(=O)Cn1cc(-c2ccc(Cl)c(NC(=O)c3coc(N)n3)c2)cn1 [Example 58]"
  IC50: "25 to 100 nM"
- molecule: "CN(C)CCC(=O)N1CC(Cn2cc(-c3ccc(Cl)c(NC(=O)c4coc(N)n4)c3)cn2)C1 [Example 65]"
  IC50: "25 to 100 nM"
- molecule: "CSc1ccc(-c2ccc(OCCCN(C)C)nc2)cc1NC(=O)c1coc(N)n1 [Example 92]"
  IC50: "25 to 100 nM"
- molecule: "CN1CCN(c2ccc(-c3ccc(Cl)c(NC(=O)c4coc(N)n4)c3)cn2)CC1 [Example 37]"
  IC50: "> 100 nM"
- molecule: "Cc1nn(C2CCNCC2)cc1-c1ccc(Cl)c(NC(=O)c2coc(N)n2)c1 [Example 55]"
  IC50: "10 to 25 nM"
- molecule: "CN(C)CCOc1ccc(-c2ccc(Cl)c(NC(=O)c3coc(N)n3)c2)cn1 [Example 73]"
  IC50: "25 to 100 nM"

Req: Which IC50 reading was recorded for the molecule CN(C)CCCOc1ccc(-c2ccc(Cl)c(NC(=O)c3coc(N)n3)c2)nc1 [Example 93] ?
Resp: 25 to 100 nM

* * *

# System: LM2 and MDA-MB-231 breast cancer cell lines
# test method notes: PAICS 2D cell proliferation assay
# Assay type: cell-based
# recorded conditions: Homo sapiens; 72 hours incubation; cell line (LM2 or MDA-MB-231) not given
pEC50: −log10 of the molar value.
measured property: pEC50

- compound: "Nc1nc(C(=O)Nc2cc(-c3cnn(CCCN4CCNCC4)c3)ccc2Cl)co1"
  pEC50: "6.60 to 7.00"
- compound: "Nc1nc(C(=O)Nc2cc(-c3cnn(CCCNC4CC4)c3)ccc2Cl)co1"
  pEC50: "6.60 to 7.00"
- compound: "Nc1nc(C(=O)Nc2cc(-c3ccc(OCC4CCCNC4)nc3)ccc2Cl)co1 (stereo not shown)"
  pEC50: "6.30 to 6.60"

Req: Recorded pEC50 of Nc1nc(C(=O)Nc2cc(-c3ccc(OC4CCNCC4)nc3)ccc2Cl)co1 , please.
Resp: 6.30 to 6.60

Req: Look at this compound and give its reported pEC50. CN(C)CCCOc1ccc(-c2ccc(Cl)c(NC(=O)c3coc(N)n3)c2)nc1
Resp: 6.30 to 6.60

* * *

# Test system: LM2 and MDA-MB-231 breast cancer cell lines
# test method notes: PAICS 2D cell proliferation assay
# Type: cell-based
# recorded conditions: Homo sapiens; 72 hours incubation; cell line (LM2 or MDA-MB-231) not given
In this section, each of the molecules is paired with its reported EC50.

Some solved cases for reference:
- molecule: "CNC1CCCN(Cc2ncc(-c3ccc(Cl)c(NC(=O)c4coc(N)n4)c3)s2)C1 (stereo not drawn) [Example 95]"
  measured property: "EC50"
  measured result: "100 to 250 nM"
- molecule: "Nc1nc(C(=O)Nc2cc(-c3cnn(C4CCCNC4)c3)ccc2Cl)co1 (stereo not drawn) [Example 42]"
  measured property: "EC50"
  measured result: "100 to 250 nM"
- molecule: "CSc1ccc(-c2cnc(OCCCN(C)C)s2)cc1NC(=O)c1coc(N)n1 [Example 99]"
  measured property: "EC50"
  measured result: "100 to 250 nM"
- molecule: "CSc1ccc(-c2ccc(OCCCN(C)C)nc2)cc1NC(=O)c1coc(N)n1 [Example 92]"
  measured property: "EC50"
  measured result: "250 to 500 nM"
- molecule: "CN1CCN(c2ncc(-c3ccc(Cl)c(NC(=O)c4coc(N)n4)c3)s2)CC1 [Example 101]"
  measured property: "EC50"
  measured result: "100 to 250 nM"
- molecule: "CN(C)CCCOc1ncc(-c2ccc(Cl)c(NC(=O)c3coc(N)n3)c2)s1 [Example 86]"
  measured property: "EC50"
  measured result: "< 100 nM"
- molecule: "Nc1nc(C(=O)Nc2cc(-c3ccn(C4CCNCC4)n3)ccc2Cl)co1 [Example 54]"
  measured property: "EC50"
  measured result: "250 to 500 nM"
- molecule: "N#Cc1nn(C2CCNCC2)cc1-c1ccc(Cl)c(NC(=O)c2coc(N)n2)c1 [Example 53]"
  measured property: "EC50"
  measured result: "100 to 250 nM"

Req: Quick one: EC50 of Nc1nc(C(=O)Nc2cc(-c3cnn(CCN4CCNCC4)c3)ccc2Cl)co1 [Example 81] ?
Resp: 250 to 500 nM
